B1: ZNF207 (parent)
chain: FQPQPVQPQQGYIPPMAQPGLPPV

Variants of: B1
Assay: protein stability index of a GFP-peptide fusion (GPS, HEK-293T) (PSI 1-6); higher = more stable;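 note: lentivirally expressed fusions sorted by FACS into six bins by GFP to DsRed ratio, PSI derived from sequencing read proportions per bin multiplied by bin number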
Settings: c terminus: a fixed tail appended
This section presents variants with their documented protein stability index values.

mutation label: Y12V
protein stability index: 3.86

mutation label: P22I
protein stability index: 2.68

mutation label: V24F
protein stability index: 2.35

mutation label: G11F
protein stability index: 2.45

mutation label: Q7K
protein stability index: 3.04

mutation label: V6S
protein stability index: 3.19

mutation label: Q9D
protein stability index: 3.59

mutation label: P8G
protein stability index: 2.96

mutation label: Y12T
protein stability index: 3.69

mutation label: V6L
protein stability index: 3.06

mutation label: M16V
protein stability index: 3.64
